system: MCF10A; assay: 5+ nucleoli phenotype percent effect (relative to siNT 0% and siKIF11 100%); higher = more cells with five or more nucleoli; conditions: 20 nM; 72 h
Record form. Attribute: 5+ nucleoli phenotype percent effect. Fill in for each entry.
Answers are plain numbers, in %.

// known answers, use as guide
INPUT SEQUENCE	ASSAY RESULT
UCACCUGGCUGGCCCGCCCAG [hsa-miR-6765-3p]	30.1
GGUCGUAUGUGUGACGCCAUUU [hsa-miR-489-5p]	-3.91
UCAGGCAAAGGGAUAUUUACAGA [hsa-miR-4742-5p]	6.44
UCUGAGGUGGAACAGCAGC [hsa-miR-7162-3p]	-23
CAAGCUUGUAUCUAUAGGUAUG [hsa-miR-100-3p]	19.2
UUCCUUCUGUUGUCUGUGCAG [hsa-miR-6868-3p]	-19.2

Dear reader, for each entry below, please note its 5+ nucleoli phenotype percent effect.
1. GCAGCAGAGAAUAGGACUACGUC [hsa-miR-922]
2. AGUUCUUCAGUGGCAAGCUUUA [hsa-miR-22-5p]
3. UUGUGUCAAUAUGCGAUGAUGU [hsa-miR-592]

Return:
1: 9.43; 2: 24; 3: -26.9

Dear reader, for each entry below, please note its 5+ nucleoli phenotype percent effect.
1. GUUCUGUUAACCCAUCCCCUCA [hsa-miR-4652-3p]
2. UGUCAGUGACUCCUGCCCCUUGGU [hsa-miR-4697-3p]
3. AUAGCAAUUGCUCUUUUGGAA [hsa-miR-4766-3p]
4. CUGAUAAGAACAGAGGCCCAGAU [hsa-miR-3161]
5. ACCUUCCUCUCCAUGGGUCUUU [hsa-miR-3667-3p]

Return:
1: -42.7; 2: 3.98; 3: -28.9; 4: -24.6; 5: -21.3

Dear reader, for each entry below, please note its 5+ nucleoli phenotype percent effect.
1. AGUGGGAGGCCAGGGCACGGCA [hsa-miR-1233-1-5p]
2. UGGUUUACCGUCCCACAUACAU [hsa-miR-299-5p]
3. CGACCUCGGCGACCCCUCACU [hsa-miR-6790-3p]
4. UUCAGCAGGAACAGCU [hsa-miR-4291]
5. CACGGCAAAAGAAACAAUCCA [hsa-miR-4445-3p]
6. CAAAAACUGCAGUUACUUUUGU [hsa-miR-548am-3p]

Return:
1: -38.8; 2: -19.4; 3: -13.8; 4: -7.69; 5: 25.7; 6: 42.5

----------
tested on: MCF10A; test: 5+ nucleoli phenotype percent effect (relative to siNT 0% and siKIF11 100%); higher = more cells with five or more nucleoli; settings: 20 nM; 72 h
Record form. Attribute: 5+ nucleoli phenotype percent effect. Fill in for each entry.
Numbers only, in %.

// known answers, use as guide
INPUT SEQUENCE	UNIT STRING	5+ nucleoli phenotype percent effect
CUCCGGGACGGCUGGGC [hsa-miR-4497]	%	0.934
UGCCCUGCAUGGUGUCCCCACAG [hsa-miR-6799-3p]	%	-1.27
AACUCUAGCCUGAGCAACAG [hsa-miR-5684]	%	-2.91
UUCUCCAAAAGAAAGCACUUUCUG [hsa-miR-515-5p]	%	3.02
UUGUGUGAGUACAGAGAGCAUC [hsa-miR-6818-5p]	%	-31.6
UGACUGAGCUUCUCCCCACAG [hsa-miR-6857-3p]	%	-17.1

Dear reader, for each entry below, please note its 5+ nucleoli phenotype percent effect.
1. UGGGGCGGGGCAGGUCCCUGC [hsa-miR-6816-5p]
2. UCUGUAGCCUGGGAGCAAUGGGGU [hsa-miR-3137]
3. AGAAAGGUGGAGGGGUUGUCAGA [hsa-miR-6730-5p]

Return:
1: 30.8; 2: -20.3; 3: -33.5

Dear reader, for each entry below, please note its 5+ nucleoli phenotype percent effect.
1. CCAAUAUUACUGUGCUGCUUUA [hsa-miR-16-2-3p]
2. UGAAGUUACAUCAUGGUCGCUU [hsa-miR-4670-3p]

Return:
40.6
-11.4

Dear reader, for each entry below, please note its 5+ nucleoli phenotype percent effect.
1. UUGCACUCUGGCCUUCUCCCAGG [hsa-miR-7703]
2. UCCUGUCUUUCCUUGUUGGAGC [hsa-miR-5699]

Return:
[-11.1, 51.3]

Source: the supplement of paper PMC10899765
